# Experimental protocol: thermodynamic solubility in formulation vehicles (phosphate buffer pH 7.4 with excipients)
# Assay type: physicochemical
# Experimental parameters: pH 7.4, aqueous with cosolvent or surfactant or cyclodextrin, thermodynamic from solid; almost all vehicles, except for the vehicle with 10% Transcutol
Attribute measured: solubility at 24 h

CN1CCN(Cc2ccc(-c3cnc(N4CCOC(Cn5nnc6ncc(-c7cnn(C)c7)nc65)C4)nc3)cc2)CC1.O=C(O)/C=C\C(=O)O (stereo not shown)	> 1300 µg/mL

====

Some compounds, each annotated with its measured AUC.
# Experimental protocol: PK parameters after bid (twice a day) administration
# Type: in vivo
# Experimental parameters: in vivo, 20 mg/kg PO (40 mg/kg/day), read-out: AUC(12-24 h)
Attribute measured: AUC (µM·h)

CN1CCN(Cc2ccc(-c3cnc(N4CCOC(Cn5nnc6ncc(-c7cnn(C)c7)nc65)C4)nc3)cc2)CC1 (centres unmarked)	6.26
CN1CCN(Cc2ccc(-c3cnc(N4CCOC(Cn5nnc6ncc(-c7cnn(C)c7)nc65)C4)nc3)cc2)CC1.O=C(O)/C=C\C(=O)O (centres unmarked)	12

====

Some molecules, each annotated with its measured AUC(0-inf).
# Experimental protocol: PK parameters in plasma after single administration
# Format: in vivo, Wistar rats
# Experimental parameters: Wistar, rat, plasma, 5 mg/kg PO
Attribute measured: AUC(0-inf) (µM·h)

CN1CCN(Cc2ccc(-c3cnc(N4CCOC(Cn5nnc6ncc(-c7cnn(C)c7)nc65)C4)nc3)cc2)CC1 (centres unmarked) [Chemical Formula 1]	2.81
CN1CCN(Cc2ccc(-c3cnc(N4CCOC(Cn5nnc6ncc(-c7cnn(C)c7)nc65)C4)nc3)cc2)CC1.O=C(O)/C=C\C(=O)O (centres unmarked) [Chemical Formula 2]	1.77

====

# Experimental protocol: thermodynamic solubility in formulation vehicles (phosphate buffer pH 7.4 with excipients)
# Assay type: physicochemical
# Experimental parameters: PBS formulation vehicle with 10% TPGS, pH 7.4, aqueous with cosolvent or surfactant or cyclodextrin, thermodynamic from solid; PBS vehicle containing 10% TPGS, 24 hours at room temperature
Attribute measured: solubility at 24 h

CN1CCN(Cc2ccc(-c3cnc(N4CCOC(Cn5nnc6ncc(-c7cnn(C)c7)nc65)C4)nc3)cc2)CC1 (stereo not shown)	≥ 1 mg/mL
